Biological target: Integrin alpha-4 (Homo sapiens, UniProt P05556+P13612)
Sequence (P13612 whole entry): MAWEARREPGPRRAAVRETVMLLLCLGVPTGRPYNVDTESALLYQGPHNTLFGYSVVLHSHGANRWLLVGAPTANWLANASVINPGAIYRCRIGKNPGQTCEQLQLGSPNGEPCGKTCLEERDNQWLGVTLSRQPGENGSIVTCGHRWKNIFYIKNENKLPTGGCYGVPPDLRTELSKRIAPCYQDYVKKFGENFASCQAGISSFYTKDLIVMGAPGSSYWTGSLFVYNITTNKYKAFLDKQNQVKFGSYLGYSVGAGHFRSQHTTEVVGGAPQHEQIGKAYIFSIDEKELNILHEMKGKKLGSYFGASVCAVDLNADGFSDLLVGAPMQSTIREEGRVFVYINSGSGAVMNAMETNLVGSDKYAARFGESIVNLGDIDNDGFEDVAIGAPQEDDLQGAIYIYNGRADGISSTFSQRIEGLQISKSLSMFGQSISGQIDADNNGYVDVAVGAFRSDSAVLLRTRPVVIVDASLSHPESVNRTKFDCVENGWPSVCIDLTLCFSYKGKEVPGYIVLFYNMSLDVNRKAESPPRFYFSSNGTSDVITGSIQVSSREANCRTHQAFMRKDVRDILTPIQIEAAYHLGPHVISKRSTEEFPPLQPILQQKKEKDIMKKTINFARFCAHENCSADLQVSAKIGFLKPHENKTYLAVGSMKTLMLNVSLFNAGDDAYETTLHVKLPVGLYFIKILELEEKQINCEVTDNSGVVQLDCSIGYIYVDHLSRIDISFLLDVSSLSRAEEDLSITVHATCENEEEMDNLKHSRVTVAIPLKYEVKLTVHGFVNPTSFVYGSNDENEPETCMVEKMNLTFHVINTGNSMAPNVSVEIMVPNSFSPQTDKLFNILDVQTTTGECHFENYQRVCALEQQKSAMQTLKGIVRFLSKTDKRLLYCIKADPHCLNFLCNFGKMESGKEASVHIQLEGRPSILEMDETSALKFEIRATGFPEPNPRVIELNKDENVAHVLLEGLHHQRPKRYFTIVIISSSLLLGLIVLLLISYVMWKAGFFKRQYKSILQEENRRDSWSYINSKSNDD
Assay: inhibition of LDV ligand binding to VLA-4 – cell-based, LDV-FITC binding, flow cytometry, dose response (AID 702)
Each entry below carries its recorded log10 of EC50.
Each number you see is log10 of EC50, and the unit inside the log is µM.

1. CN1C(=S)SC(N(O)C(=O)Nc2ccccc2)C1(C)C (stereo not given): 1.50

Q: In one line, give reported log10 of EC50 of the entry COc1ccc(Nc2cc(C)nc3ccccc23)cc1 .
Ans: 0.63

---

Biological target: Integrin alpha-4 (Homo sapiens, UniProt P05556+P13612)
Sequence (P13612 whole entry): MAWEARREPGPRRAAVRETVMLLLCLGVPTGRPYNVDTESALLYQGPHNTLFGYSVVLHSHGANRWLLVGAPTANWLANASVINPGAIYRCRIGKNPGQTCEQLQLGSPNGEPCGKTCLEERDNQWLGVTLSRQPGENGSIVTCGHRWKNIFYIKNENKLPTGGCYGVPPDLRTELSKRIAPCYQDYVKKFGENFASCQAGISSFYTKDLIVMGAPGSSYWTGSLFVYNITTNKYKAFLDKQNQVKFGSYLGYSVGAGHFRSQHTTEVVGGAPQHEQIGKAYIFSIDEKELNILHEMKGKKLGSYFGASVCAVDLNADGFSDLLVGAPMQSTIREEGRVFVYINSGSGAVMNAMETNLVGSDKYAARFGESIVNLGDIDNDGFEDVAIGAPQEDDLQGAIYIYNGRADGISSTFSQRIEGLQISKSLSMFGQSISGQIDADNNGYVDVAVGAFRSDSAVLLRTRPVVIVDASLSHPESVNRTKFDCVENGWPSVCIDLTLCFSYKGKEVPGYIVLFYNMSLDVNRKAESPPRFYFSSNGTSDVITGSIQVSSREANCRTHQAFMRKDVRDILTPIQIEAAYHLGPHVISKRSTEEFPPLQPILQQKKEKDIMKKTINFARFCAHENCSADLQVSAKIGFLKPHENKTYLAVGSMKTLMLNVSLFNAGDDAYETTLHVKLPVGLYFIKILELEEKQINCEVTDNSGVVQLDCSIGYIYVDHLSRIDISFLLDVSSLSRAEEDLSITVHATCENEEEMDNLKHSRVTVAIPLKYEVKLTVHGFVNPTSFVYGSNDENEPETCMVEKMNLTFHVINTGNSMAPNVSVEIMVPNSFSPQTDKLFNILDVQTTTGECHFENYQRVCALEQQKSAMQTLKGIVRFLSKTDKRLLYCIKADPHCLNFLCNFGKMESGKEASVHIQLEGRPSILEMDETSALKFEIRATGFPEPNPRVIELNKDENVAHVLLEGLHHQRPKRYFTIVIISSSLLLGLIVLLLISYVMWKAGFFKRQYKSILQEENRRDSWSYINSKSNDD
Assay: inhibition of LDV ligand binding to VLA-4 – cell-based, LDV-FITC binding, flow cytometry, dose response (AID 702)
pEC50: −log10 of the molar value.
Returns one of T or F; T when pEC50 is >= 5.

Q: Decide: pEC50 of NC(=O)c1cc(N)ccc1N1CCCC1 [5-Amino-2-pyrrolidin-1-yl-benzamide] >= 5?
Ans: F

Q: Decide: pEC50 of C#CCN(C)C(C)Cc1ccccc1 (stereo not drawn) [Deprenyl] >= 5?
Ans: F

Q: Decide: pEC50 of CCOC(=O)N1CCC(NC(=O)CSCc2nc(-c3ccc(OC)c(OC)c3)oc2C)CC1 >= 5?
Ans: T

Q: Decide: pEC50 of OC(CN1CCOCC1)CN(c1ccccc1)c1ccccc1 (stereo not drawn) >= 5?
Ans: T

Q: Decide: pEC50 of COc1ccc(OC)c(NC(=O)CCN2CCCC(C)C2)c1 (stereo not drawn) [MLS000070519] >= 5?
Ans: F

Q: Decide: pEC50 of Cc1csc(NC(=O)CSc2nsc(SCC(=O)Nc3nc(C)cs3)c2C#N)n1 >= 5?
Ans: F

Q: Decide: pEC50 of COc1ccc(C(=O)Oc2ccc(C(C)=O)cc2)c(OC)c1 [(4-acetylphenyl) 2,4-dimethoxybenzoate] >= 5?
Ans: T

Q: Decide: pEC50 of Cc1cc(=O)oc2c(CN3CCC(C)CC3)c(O)c(Cl)cc12 >= 5?
Ans: T

These entries and their values trace back to BindingDB's records for doi:10.7270/Q2H130FK.
